Quick reference: residual activity of the listed items.
- targetOrSystem: Solute carrier organic anion transporter family member 1B1 (Homo sapiens, UniProt Q9Y6L6)
- Sequence (Q9Y6L6 whole entry): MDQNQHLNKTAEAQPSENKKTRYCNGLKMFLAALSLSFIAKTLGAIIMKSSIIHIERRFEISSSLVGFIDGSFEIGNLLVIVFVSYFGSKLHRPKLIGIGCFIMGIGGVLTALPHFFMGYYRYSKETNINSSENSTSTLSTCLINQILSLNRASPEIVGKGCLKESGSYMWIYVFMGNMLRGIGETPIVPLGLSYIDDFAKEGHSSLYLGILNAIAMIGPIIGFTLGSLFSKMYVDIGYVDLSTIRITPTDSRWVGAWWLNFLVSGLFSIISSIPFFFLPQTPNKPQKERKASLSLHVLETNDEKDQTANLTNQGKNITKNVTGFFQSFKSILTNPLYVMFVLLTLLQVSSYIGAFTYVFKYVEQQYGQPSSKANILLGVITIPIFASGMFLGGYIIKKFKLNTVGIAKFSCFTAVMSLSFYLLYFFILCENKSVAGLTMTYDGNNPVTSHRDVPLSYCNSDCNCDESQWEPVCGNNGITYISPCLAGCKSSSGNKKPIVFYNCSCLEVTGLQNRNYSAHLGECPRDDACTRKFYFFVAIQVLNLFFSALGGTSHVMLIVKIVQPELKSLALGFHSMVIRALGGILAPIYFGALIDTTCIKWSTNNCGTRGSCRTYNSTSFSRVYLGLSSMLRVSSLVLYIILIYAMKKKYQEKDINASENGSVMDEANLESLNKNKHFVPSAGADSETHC
- testParameters: chinese hamster, cho, 10 µM

For orientation, consider the following solved cases.
INSERT INTO results (molecule, reportedresult) VALUES
  ('C=CCSCC1Nc2cc(Cl)c(S(N)(=O)=O)cc2S(=O)(=O)N1 (stereo not given) [ALTHIAZIDE]', '107.1%'),
  ('COC(=O)CC[C@@H](C)[C@H]1CC[C@H]2[C@@H]3CC[C@@H]4C[C@H](O)CC[C@]4(C)[C@H]3C[C@H](O)[C@]12C [METHYL DEOXYCHOLATE]', '62.17%'),
  ('CCOCN(C(=O)CCl)c1c(C)cccc1CC', '74.59%'),
  ('O=C(/C=C/c1ccccc1)c1ccc(O)cc1 [4''-HYDROXYCHALCONE]', '132.2%'),
  ('COc1c(O)cc(O)cc1O', '89.16%'),
  ('NC(=O)c1ncn([C@@H]2O[C@H](CO)[C@@H](O)[C@H]2O)n1', '112.3%'),
  ('O=[N+]([O-])NC1=NCCN1Cc1ccc(Cl)nc1', '73.94%'),
  ('COc1ccc([C@@H](C)C(=O)c2ccc(O)cc2O)cc1 [ANGOLENSIN (R)]', '114.1%');

I have this molecule here, CC(C)[C@@H]1CC[C@@H](C)C[C@H]1OC(=O)c1ccccc1 [MENTHYL BENZOATE] , and I need its recorded residual activity. 100.9%

Please look up its residual activity: CC(=O)S[C@@H]1CC2=CC(=O)CC[C@]2(C)[C@H]2CC[C@@]3(C)[C@@H](CC[C@@]34CCC(=O)O4)[C@H]12 52.45%

Please look up its residual activity: Cl.c1ccc2c(c1)CN1CCCC1=N2 [DESOXYPEGANINE HYDROCHLORIDE] 132%

Report residual activity for C#CCOS(=O)OC1CCCCC1Oc1ccc(C(C)(C)C)cc1 (stereo not given) please. 93.31%

Using the record for COc1ccc(C2COc3cc(O)ccc3C2)c(OC)c1O (racemic) [MUCRONULATOL(+/-)] , report its residual activity. 87.17%

Look up residual activity: O=C(O)c1cc(O)c(=O)c2c(O)c(O)ccc2c1 [7-DESHYDROXYPYROGALLIN-4-CARBOXYLIC ACID] 100.2%

Need residual activity, item Nc1ccc(S(=O)(=O)c2ccc(N)cc2)cc1 78.21%

Request the reported residual activity associated with COP(=O)(NC(C)=O)SC (stereo not given) [ACEPHATE] 75.83%

Which residual activity reading was recorded for the molecule C[C@@H]1C[C@H]2[C@@H]3C[C@H](F)C4=CC(=O)C=C[C@]4(C)[C@@]3(F)[C@@H](O)C[C@]2(C)[C@@]1(O)C(=O)CO ? 84.89%

# lookup: residual activity of C=C(C)[C@H]1COc2cc3oc(=O)ccc3cc2O1 112.3%

Would you mind telling me what residual activity value was observed for CCN(CC)C(=O)c1cccc(C)c1 [DIETHYLTOLUAMIDE] ? 108.7%
